Reported ED50 values follow for various molecules
system: Rattus norvegicus; experiment: Antitussive activity in ip dosed Sprague-Dawley rat assessed as reduction in number of capsaicin-induced coughs; assay type: functional
Field format: number, assumed mg/kg, no unit text.

Oc1ccc2c3c1O[C@H]1c4c(c5cccc6c5n4CCCC6)C[C@@]4(O)[C@@H](C2)N(CC2CC2)CC[C@]314 | 0.0123

Request: Give ED50 (Rattus norvegicus) of the following molecule: CCCn1c2c(c3ccccc31)C[C@@]1(O)[C@H]3Cc4ccc(OC)c5c4[C@@]1(CCN3CC1CC1)[C@H]2O5
Response: 0.0148

Request: Look up ED50 with Rattus norvegicus for this molecule: CCn1c2c(c3cccc(C)c31)C[C@@]1(O)[C@H]3Cc4ccc(OC)c5c4[C@@]1(CCN3CC1CC1)[C@H]2O5
Response: 0.00179

Request: Form: Entry = COc1ccc2c3c1O[C@H]1c4c(c5cccc(C)c5n4C)C[C@@]4(O)[C@@H](C2)N(CC2CC2)CC[C@]314 | System = Rattus norvegicus | ED50 = ____
Response: 0.00635

Request: Test system Rattus norvegicus; read-out ED50; what value for Cn1c2c(c3ccccc31)C[C@@]1(O)[C@H]3Cc4ccc(O)c5c4[C@@]1(CCN3CC1CC1)[C@H]2O5 ?
Response: 0.204

These data points were gathered from ChEMBL document CHEMBL1155897.
